- Test system: Vero
- Assay Name: Cytotoxicity against african green monkey Vero cells after 72 hrs by Cell titer assay
- Assay type: cell-based, Chlorocebus sabaeus
- Settings: Chlorocebus sabaeus, Vero, 72 h
pIC50: −log10 of the molar value.
Measurement Type: pIC50

Molecule	Target Of Assay	pIC50
CCOC(=O)c1ccc(COc2cc(C(F)(F)F)nc3c(C(F)(F)F)cccc23)o1	Vero	3.93

# input for lookup
Field request: pIC50 | item: `CCOC(=O)c1cc(COc2cc(C(F)(F)F)nc3c(F)cccc23)on1`
< 3.89

* * *

- Tested on: Vero
- Assay Name: Cytotoxicity against african green monkey Vero cells after 72 hrs by Cell titer assay
- Assay type: cell-based, Chlorocebus sabaeus
- Settings: Chlorocebus sabaeus, Vero, 72 h
Entries annotated with measured IC50

Observe how each entry below is paired with its result.
Compound	IC50
CCOC(=O)c1cc(COc2cc(C(F)(F)F)nc3c(C(F)(F)F)cccc23)no1	> 128 µM
CCOC(=O)c1cc(COc2cc(C(F)(F)F)nc3cc(Cl)cc(Cl)c23)on1	> 128 µM
CCOC(=O)c1nc(COc2cc(C(F)(F)F)nc3c(C(F)(F)F)cccc23)cs1	> 128 µM
CCOC(=O)c1cc(COc2cc(C(F)(F)F)nc3c(C(F)(F)F)cc(OC)cc23)on1	> 128 µM
CCOC(=O)c1cc(COc2ccnc3c(C(F)(F)F)cccc23)on1	> 128 µM
O=[N+]([O-])c1ccc(COc2cc(C(F)(F)F)nc3c(C(F)(F)F)cccc23)o1	15.4 µM
CCOC(=O)c1cc(COc2cc(C(F)(F)F)nc3ccc(C(F)(F)F)cc23)on1	> 128 µM

# query: IC50 of entry CO[C@H]1/C=C/O[C@@]2(C)Oc3c(C)c(O)c4c(O)c(c(/C=N/N5CCN(C)CC5)c(O)c4c3C2=O)NC(=O)/C(C)=C\C=C\[C@H](C)[C@H](O)[C@@H](C)[C@@H](O)[C@@H](C)[C@H](OC(C)=O)[C@@H]1C [RIFAMPIN]
127 µM

Attribution: ChEMBL document CHEMBL1153363
